Known % inhibition of a selection of compounds
- System: HS-PSS
- experiment notes: % inhibition of CellTiter-Glo viability at highest tested concentration (72 h), relative to DMSO and benzethonium chloride controls; higher = more inhibition
Returns: string containing the numeric result and its unit.

Known results for compounds:
[[record]]
compound = "COc1cc2c(NC3CCN(C(C)C)CC3)nc(C3CCCCC3)nc2cc1OCCCN1CCCC1 [UNC0638] (max concentration tested 10000 nM)"
result = "101%"

[[record]]
compound = "CC(C)c1c(C(=O)Nc2ccccc2)c(-c2ccccc2)c(-c2ccc(F)cc2)n1CC[C@@H](O)C[C@@H](O)CC(=O)O [Atorvastatin] (max concentration tested 10000 nM)"
result = "75.3%"


Request: Supply reported % inhibition belonging to this compound: CN(C[C@@H]1COCCO1)S(=O)(=O)Nc1ccc2ccc3ncc(-c4cnn(C)c4)cc3c(=O)c2c1 [MK-2461] (max concentration tested 10000 nM)
Result: 25.5%

Request: Supply reported % inhibition belonging to this compound: Cc1cc(-c2ncc(-c3cccnc3)cc2/C=C/c2ccccc2)cnc1-c1cccnc1 [Pyridoclax] (max concentration tested 25000 nM)
Result: 9.44%

Request: Supply reported % inhibition belonging to this compound: CNC(=O)c1ccccc1Nc1nc(Nc2ccc3c(c2OC)CCC[C@H](N2CCN(CCO)CC2)C3)ncc1Cl (max concentration tested 5000 nM)
Result: 86.5%

Request: Supply reported % inhibition belonging to this compound: Cc1sc2c(c1C)C(c1ccc(Cl)cc1)=N[C@@H](CC(=O)Nc1ccc(O)cc1)c1nnc(C)n1-2 [OTX015] (max concentration tested 10000 nM)
Result: 59.5%

Request: Supply reported % inhibition belonging to this compound: O=C1NC(=O)/C(=C/c2ccc3nccc(-c4ccncc4)c3c2)S1 (max concentration tested 10000 nM)
Result: 49.6%

Recorded values, source the supplement of paper PMC5579334.
